Tested on: HepG2
Experiment: GSK_TCMDC: Percent inhibition of human HepG2 cell line. Test compounds present at 10uM.
Type: functional
assay.readout: Inhibition (%)
Report the value in % with no unit label.

[in] Please look at Cc1cc(Cl)ccc1NC(=O)NCCCCCN1CCC(c2c[nH]c3ccccc23)CC1 and tell me its recorded Inhibition on HepG2.
[out] 59

[in] Provide Inhibition, system HepG2, entry Cc1noc(C)c1-c1ccc2c(Nc3ccc(C(F)(F)F)cc3)c(C(N)=O)cnc2c1.Cl
[out] 1

[in] State recorded Inhibition with HepG2, entry CCn1cnc2c(N3CCCC3=O)cc(C(=O)N[C@@H](Cc3ccccc3)[C@H](O)CNC3CCCCC3)cc21 , no comment.
[out] 0

[in] // output Inhibition; input COc1ccc(CN2CCCN(Cc3ccc(C(=O)Nc4ccc(Cl)cc4)cc3)CC2)cc1.O=C(O)C(F)(F)F ; system HepG2
[out] 46

[in] Fill: Inhibition (HepG2) for this molecule O=C(Nc1cccc(-c2cccc(-c3ccc(F)cc3)n2)c1)c1ccc([N+](=O)[O-])o1
[out] 100

[in] State the measured Inhibition (HepG2) of Cc1cc(C)c(NC(=O)NC2CCN(CCCCCNC(=O)/C=C/c3ccc(Cl)c(Cl)c3)CC2)c(C)c1
[out] 30

[in] State Inhibition (HepG2) of Cl.O=C(NC1CCC(CCN2CCc3ccc(-c4cnccn4)cc3CC2)CC1)c1cccc(-n2cccn2)c1 (centres undefined) .
[out] 23

[in] GET Inhibition where system = HepG2 and item = NS(=O)(=O)c1cccc(N/C=C2\C(=O)Nc3ccc(S(=O)(=O)Cc4c(Cl)cccc4Cl)cc32)c1
[out] 1

[in] Find the measured Inhibition of COc1ccc2nccc(N3CCCN(CCNCc4ccc5c(n4)NC(=O)CS5)CC3)c2n1.Cl with HepG2 as test system.
[out] 8

====

Assign Inhibition to each entry below.
Test system: Plasmodium falciparum
Assay: GSK_TCMDC: Inhibition of Plasmodium falciparum Dd2 in whole red blood cells, using parasite LDH activity as an index of growth. Test compounds present at 2uM
Format: functional
Entry rule: numbers only, all in %.

[in] Quote Inhibition with test system Plasmodium falciparum for CCOC(=O)c1cn(CC)c2cc(N(C)CCc3ccc(OC)c(OC)c3)c(F)cc2c1=O.Cl
[out] 96

[in] State recorded Inhibition with Plasmodium falciparum, entry COc1cc(CNCCCCCCNCc2cc(OC)cc3ccccc23)c2ccccc2c1.CS(=O)(=O)O , no comment.
[out] 94

[in] Look up and report Inhibition, with Plasmodium falciparum as system, for COCCNCc1ncsc1-c1ccc2c(Nc3cc(O)c(Cl)cc3F)ccnc2c1
[out] 92

[in] Enter recorded Inhibition with Plasmodium falciparum for Cc1cc(F)ccc1Nc1nc(N(C)c2ccccc2)c2cc(OCCN(C)C)ccc2n1 here.
[out] 55

[in] Recall the reported Inhibition of O=C(NC1CCN(Cc2ccccc2)CC1)c1cc(C(=O)NC2CCN(Cc3ccccc3)CC2)cc(C(=O)NC2CCN(Cc3ccccc3)CC2)c1 on Plasmodium falciparum and write it down.
[out] 100

[in] Please indicate recorded Inhibition of N#Cc1cccc(CN(Cc2ccc(Cl)c(Cl)c2)S(=O)(=O)c2cccc([N+](=O)[O-])c2)c1 measured with Plasmodium falciparum.
[out] 73

[in] Look up and report Inhibition, with Plasmodium falciparum as system, for Cc1ccc(Cn2ncc(N3CC(C)NC(C)C3)c(Cl)c2=O)cc1NC(=O)Nc1ccc(-c2ccccc2)cc1.O=C(O)C(F)(F)F (stereo not drawn)
[out] 29

[in] Find Inhibition for Brc1ccc(Nc2ccnc3cc(-c4nccs4)ccc23)cc1Oc1ccnc2cc(-c3nccs3)ccc12 on Plasmodium falciparum and write it down.
[out] 83

[in] Enter measured Inhibition, system Plasmodium falciparum, for the compound shown: O=C(CC1SC(N2N=C(c3cccs3)CC2c2ccccc2)=NC1=O)Nc1ccc(Cl)cc1 (stereo not drawn)
[out] 88

[in] Retrieve Inhibition on Plasmodium falciparum; query Cl.N#Cc1ccc2c(c1)CCN(CCC1CCC(NC(=O)c3cc4ccc(Br)cc4[nH]3)CC1)C2 (stereo not drawn)
[out] 17

[in] Look up Plasmodium falciparum data: Inhibition of O=C(Nc1ccccc1Oc1ccccc1)NC1CCN(c2ccnc3cc(Cl)ccc23)C1.O=C(O)C(F)(F)F (stereo not drawn) , then report it.
[out] 74

[in] Report Inhibition on Plasmodium falciparum for this entry: O=C(NCc1ccccc1)Nc1cccc(-c2cccc(-c3nc4cc(C(F)(F)F)ccc4[nH]3)c2)c1
[out] 30

[in] # return Inhibition for COc1cccc(C(=O)NCc2cccs2)c1Oc1ccccc1 , test system: Plasmodium falciparum
[out] 4

[in] Write down measured Inhibition (Plasmodium falciparum) for this compound. Cl.c1ccc2c(Nc3ccc(Oc4ccc(Nc5c6ccccc6nc6ccccc56)cc4)cc3)c3ccccc3nc2c1
[out] 99

[in] With Plasmodium falciparum as the test system, provide measured Inhibition for this compound: CCc1ccc(O)c(-c2cc(C(=O)Nc3cccnc3)[nH]n2)c1
[out] 99

[in] Given Cl.N#Cc1ccc(NC(=O)c2ccc(Cc3ccc4c(c3)CCN(C3CCC3)CC4)cn2)cc1 , report its Inhibition on Plasmodium falciparum.
[out] 2

[in] Provide Inhibition, system Plasmodium falciparum, entry CN(C)CCCOc1c(C(C)(C)C)cc(-c2cc(C(C)(C)C)c(OCCCN(C)C)c(C(C)(C)C)c2)cc1C(C)(C)C
[out] 99

[in] Retrieve Inhibition on Plasmodium falciparum; query Cc1ccc2c(Cl)c(C(=O)N3CC(C)OC(C)C3)sc2c1 (stereo not drawn)
[out] 98
